Data credit: PubChem BioAssay (NCATS)

Test system: MKL-2
Experiment: qHTS assay to identify novel small-molecules to repurpose for Merkel cell carcinoma treatment (AID 1296009); further: nearly all actives have a fitted effect of over 60% in size
Settings: MCC and control cell lines, CellTiter-Glo viability, 72 h; series mostly up to 46 µM
Records with an inconclusive call do not appear. The source made the active and inactive calls. The call rests on the fitted dose curve; in most records, active means well fitted inhibition curve with a large enough effect; inconclusive means small, poorly fitted or top-dose-only effect; inactive means flat fitted curve, though single readings scatter.
Response enum: 1 (yes) for active, 0 (no) for inactive

Please review the entries below; each comes with its answer.
Query: // return assay outcome for `NC(CO)(CO)CCc1ccc(Sc2cccc(OCc3ccccc3)c2)cc1Cl`
Response: 1 (yes)

Query: Try this molecule too: `O=C1NC(=O)C(c2ccccc2)(c2ccccc2)N1`
Response: 0 (no)

Query: Try this molecule too: `CCCCCN(C)CCC(O)(P(=O)(O)O)P(=O)(O)O`
Response: 0 (no)

Query: Try this molecule too: `CC=C(C)C(=O)O[C@H]1C(C)=C[C@]23C(=O)[C@@H](C=C(CO)[C@@H](O)[C@]12O)[C@H]1[C@@H](C[C@H]3C)C1(C)C`
Response: 0 (no)

Others:
Query: // return assay outcome for `COc1cc2ncnc(Nc3ccc(F)c(Cl)c3)c2cc1OCCCN1CCOCC1`
Response: 1 (yes)

Query: Try this molecule too: `O=C(NCc1ccncc1)C12C[C@H]3C[C@@H](C1)CC(c1ccc(Cl)cc1)(C3)C2`
Response: 0 (no)
